System: OVCAR-4 ovarian
assay_comment: NCI tumour cell line growth inhibition, 48 h
measurement_name: TGI

GET /values?readout=TGI&system=OVCAR-4 ovarian&item= O=C(O)[C@H]1NC[C@H]2C(Br)=NO[C@@H]12
> 100 µM

GET /values?readout=TGI&system=OVCAR-4 ovarian&item= CC(=O)Nc1cccc(C#Cc2cncnc2Nc2ccc(OCc3cccc(F)c3)c(Cl)c2)c1
> 25 µM

GET /values?readout=TGI&system=OVCAR-4 ovarian&item= O=C1C=CC2(CCC23C=CC(=O)O3)O1 (stereo unspecified)
> 100 µM

GET /values?readout=TGI&system=OVCAR-4 ovarian&item= COc1cc2c(cc1O)NC(=O)[C@@H]1C[C@@H](O)CN1C2=O
> 100 µM

GET /values?readout=TGI&system=OVCAR-4 ovarian&item= C[C@]12CCc3nc(Nc4ccc(O)cc4)sc3C1=CC[C@@H]1[C@@H]2CC[C@]2(C)/C(=N/NC(N)=S)CC[C@@H]12
3.43 µM

GET /values?readout=TGI&system=OVCAR-4 ovarian&item= CCOC(=O)C[C@@]12CCCN[C@]1(C)CCc1ccccc12
> 100 µM

GET /values?readout=TGI&system=OVCAR-4 ovarian&item= CC1CCCP(=O)(c2ccccc2)CCC1 (stereo unspecified)
> 100 µM

GET /values?readout=TGI&system=OVCAR-4 ovarian&item= CC(=O)CCC1(C(=O)OCC(C)C)CCCC1=O (stereo unspecified)
> 100 µM

GET /values?readout=TGI&system=OVCAR-4 ovarian&item= CCNC(=S)N/N=C(/C)c1cccc(/C(C)=N\NC(=S)NCC)n1
> 100 µM

GET /values?readout=TGI&system=OVCAR-4 ovarian&item= COc1cccc2c(=O)oc(-c3ccccc3C)nc12
70.6 µM

GET /values?readout=TGI&system=OVCAR-4 ovarian&item= COc1cccc(/C=N/[N-]C(N)=O)c1[O-].[Cu+2].[OH3+]
32.3 µM
